Tested on: Acinetobacter baumannii
Assay: Antimicrobial activity against Acinetobacter baumannii by […]
Type: functional
observationType: MIC

Below: 2 molecules and their reported MIC.
CC1(C)S[C@@H]2[C@H](NC(=O)[C@H](N)c3ccc(O)cc3)C(=O)N2[C@H]1C(=O)O : > 256 µg/mL
CCN1CCN(C(=O)N[C@@H](C(=O)N[C@@H]2C(=O)N3[C@@H]2SC(C)(C)[C@@H]3C(=O)O)c2ccccc2)C(=O)C1=O : > 256 µg/mL

With those in mind, consider the next molecule.
Briefly, MIC measured for CC1(C)S[C@@H]2[C@H](NC(=O)[C@H](C(=O)O)c3ccsc3)C(=O)N2[C@H]1C(=O)O : > 256 µg/mL
